Listed below: protein stability index values for each entry.
B1: CCNC (parent)
chain: QSSHYLQWILDKQDLLKERQKDLK

variants of: B1; experiment: protein stability index of a GFP-peptide fusion (GPS, HEK-293T) (PSI 1-6); higher = more stable; conditions: c terminus: a fixed tail appended;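 also: lentivirally expressed fusions sorted by FACS into six bins by GFP to DsRed ratio, PSI derived from sequencing read proportions per bin multiplied by bin number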
readout label: protein stability index

1. D22F
2.67
2. R19P
3.56
3. K21A
2.78
4. L6G
4.11
5. Q7E
2.73
6. L10T
3.34
7. L15Q
3.94
8. W8E
4.35
9. L15W
3.37
10. K12E
3.66
11. K21C
2.42
12. K24H
3.29
13. R19Y
2.72
14. D11L
2.72
15. D11W
2.38
16. S3L
1.92
17. Q1V
2.74
18. L15E
4.08
19. D11R
2.1
20. E18L
2.33
